The values you see were collected from ChEMBL document CHEMBL2384958.

organism: Danio rerio; test: Toxicity in zebrafish larva measured at 4 days postfertilization; assay type: organism-based; conditions: in vivo, 96 h

{"MOLECULE": "COc1cc(C(=O)O)c2c(c1C)OC(=O)c1c(C)cc(O)c(C=O)c1O2", "UNIT_ABBREV": "µM", "MTD": 3.6}
{"MOLECULE": "COc1cc(C)c(C(=O)Oc2cc(C)c(C(=O)O)c(O)c2)c(O)c1", "UNIT_ABBREV": "µM", "MTD": 60.2}
{"MOLECULE": "CC(=O)C1=C(O)C=C2Oc3c(C(C)=O)c(O)c(C)c(O)c3[C@@]2(C)C1=O [(+)-USNIC ACID]", "UNIT_ABBREV": "µM", "MTD": 0.3}
{"MOLECULE": "COC(=O)/C(=C1/OC(=O)C(c2ccccc2)=C1O)c1ccccc1", "UNIT_ABBREV": "µM", "MTD": 15.5}

----------
system: Plasmodium berghei; experiment: Antiplasmodial activity against liver stage of Plasmodium berghei ANKA expressing GFP infected in human Huh7.5 cells assessed as decrease in size at 10 uM after 48 hrs by immunofluorescence analysis; assay type: functional, organism-based; conditions: Huh-7
The source made the active and inactive calls. No cut-off for these calls is given here.
Possible outcomes: active, inactive

{"MOLECULE": "CC(=O)C1=C(O)C=C2Oc3c(C(C)=O)c(O)c(C)c(O)c3[C@@]2(C)C1=O [(+)-USNIC ACID]", "TARGET_DESC": "Plasmodium berghei", "GROUP": "active"}
{"MOLECULE": "COC(=O)/C(=C1/OC(=O)C(c2ccccc2)=C1O)c1ccccc1 [VULPINIC ACID]", "TARGET_DESC": "Plasmodium berghei", "GROUP": "active"}
{"MOLECULE": "COc1cc(C)c(C(=O)Oc2cc(C)c(C(=O)O)c(O)c2)c(O)c1 [EVERNIC ACID]", "TARGET_DESC": "Plasmodium berghei", "GROUP": "inactive"}
{"MOLECULE": "COc1cc(C(=O)O)c2c(c1C)OC(=O)c1c(C)cc(O)c(C=O)c1O2 [PSOROMIC ACID]", "TARGET_DESC": "Plasmodium berghei", "GROUP": "inactive"}

----------
system: Plasmodium berghei; assay: microbe, parasite or virus in culture; details: ANKA, HepG2
Description: Antiplasmodial activity against liver stage of Plasmodium berghei ANKA infected in human HepG2 cells
pIC50: −log10 of the molar value.
MEASUREMENT_LABEL: pIC50

{"MOLECULE": "COc1cc(NC(C)CCCN)c2ncccc2c1 (stereo unspecified)", "REPORTED_MEASUREMENT": 5.12}

----------
assay: Inhibition of Plasmodium falciparum FabI using crotonoyl-CoA as substrate preincubated for 10 mins prior to substrate addition
pIC50: −log10 of the molar value.
Recorded pIC50 by entry

{"MOLECULE": "COc1cc(C(=O)O)c2c(c1C)OC(=O)c1c(C)cc(O)c(C=O)c1O2", "READING_QUALIFIER": "=", "pIC50": 4.15}
{"MOLECULE": "COc1cc(C)c(C(=O)Oc2cc(C)c(C(=O)O)c(O)c2)c(O)c1", "READING_QUALIFIER": "=", "pIC50": 4.44}
{"MOLECULE": "CC(=O)C1=C(O)C=C2Oc3c(C(C)=O)c(O)c(C)c(O)c3[C@@]2(C)C1=O [(+)-USNIC ACID]", "READING_QUALIFIER": "<", "pIC50": 3.70}
{"MOLECULE": "COC(=O)/C(=C1/OC(=O)C(c2ccccc2)=C1O)c1ccccc1", "READING_QUALIFIER": "<", "pIC50": 3.85}
